Numbers sourced from PubChem BioAssay (NCI).

tested on: EKVX NSCLC; experiment: NCI-60 one-dose screen, 48 h (100 = growth as untreated, 0 = no growth, -100 = all killed); settings: 10 µM unless noted
The panel holds about 83,000 compounds, 20% with a hit somewhere; the sample as a whole holds those more often.
MEASUREMENT_KIND: growth (%)
Reply with just the number (in %).

Examples with their reported growth follow.
CCC[CH2][Sn]([CH2]CCC)([CH2]CCC)[O]C(=O)CC
-43.9
C#CC1(O)CCC2(C)C(CCC3C4CCC(=O)C4(C)CCC32)C1 (stereo unspecified)
89.3
O=C(O)C1(Br)CC12c1ccccc1-c1ccccc12 (stereo unspecified)
116

Quote growth reported for Nc1ncnc2c1c(C(=O)NO)cn2C1OC(CO)C(O)C1O (stereo unspecified) please.
6.87

Look up growth of "C=C=[CH][Sn]([c]1ccccc1)([c]1ccccc1)[c]1ccccc1" and report it.
-32.7

Given "O=C1NC(=S)NC(=O)C1=Cc1ccccc1" , respond with its growth.
111

====

tested on: PC-3 prostate; test: NCI-60 one-dose screen, 48 h; settings: 10 µM unless noted
The panel holds about 83,000 compounds, 20% with a hit somewhere; the sample as a whole holds those more often. Activity calls are given as the source filed them. How the source made its calls: active means growth percent below 10; inactive means the rest.
Pick one: active, inactive

A selection of reference data follows.
COc1ccc(NP2(=O)OCC(C)(N)CO2)cc1 (stereo not given)
inactive
CCC(C)[C@H]1O[C@]2(C=C[C@@H]1C)C[C@@H]1C[C@@H](C/C=C(\C)[C@@H](OC3C[C@H](OC)C(O[C@H]4C[C@H](OC)[C@@H](O)[C@H](C)O4)[C@H](C)O3)[C@@H](C)/C=C/C=C3\CO[C@@H]4[C@H](O)C(C)=C[C@@H](C(=O)O1)[C@]34O)O2 (stereo not given in full)
active
c1ccc(CCN2CCCCC2Cc2ccccc2)cc1 (stereo not given)
inactive
O=C(c1cccs1)C1NO[N+]([O-])=C1c1cccs1 (stereo not given)
inactive
NC(=O)OCC(CO)(c1ccccc1)c1ccccc1
inactive
CC(=O)O[C@@H]1C2=C(C)C3(CC3)[C@@](C)(O)C(=O)C2=C[C@@]1(C)CO
active
Cc1cc(N(CCCl)CCCl)ccc1C=Nc1ccc2ccccc2c1
inactive
C[CH2][Pb]([CH2]C)([CH2]C)[O]C(=O)COC
inactive
O=C(O)CNC(=O)c1ccccc1
inactive
CCOP(=O)(OCC)Oc1ccc(Sc2ccc(OP(=O)(OCC)OCC)cc2)cc1
inactive

Each compound tested received a call. Report the one for "CCCCNCCc1ccccn1" .
inactive

Which outcome was entered for the compound CC(=O)N1N=C(c2ccccc2)CC1c1sc(N(CCCl)CCCl)nc1Cl (stereo not given) in this test?
inactive

// return assay outcome for COc1cc2c(cc1OC)CN(C)C(C)C2 (stereo not given)
inactive

Name the outcome recorded for "C[C@]12CCc3sc(-c4ccc(Cl)cc4)nc3C1=CC[C@@H]1[C@@H]2CC[C@]2(C)C(=O)CC[C@@H]12" in the assay.
inactive

Dear colleague, could you share the recorded outcome for "CC(=O)[O][Hg][c]1nc2c(c(=O)n(C)c(=O)n2C)n1C" when you have a moment?
inactive

Hi, sorry to bother you, what did the test record for O=C1C=CC(=O)C2C1C1(Cl)C(Cl)=C(Cl)C2(Cl)C1(Cl)Cl (stereo not given) ?
inactive

Could you please tell me the result logged for C1CNC2CCCC2C1 (stereo not given) in this assay?
inactive

Entry "C=C=[CH][Sn]([c]1ccccc1)([c]1ccccc1)[c]1ccccc1" : call = ?
active

Hi, do you know how "CCCCn1cc(C(=O)/C(C#N)=C/c2cc3ccccc3nc2Cl)c2cc(OC)ccc21" came out in this test?
inactive

What classification did ClCCN(CCCl)c1nc(Cl)c(C2CC(c3ccccc3)=NN2c2ccccc2)s1 (stereo not given) end up with in this test?
inactive

Please indicate how the test categorized "O=C(CI)Nc1ccc(Br)cc1" .
inactive

Each compound tested received a call. Report the one for "O=C(CF)N(O)c1ccc(/C=C/c2ccccc2)cc1" .
inactive

Hey, what did the test say about "O=S(=O)(O)c1ccc(-c2ccc([As](=O)(O)O)cc2)cc1" ?
inactive

Hey, what did the test say about "O1[As]2O[As]3O[As]1O[As](O2)O3" ?
inactive

Test call for this compound, please: Cc1ccc(C(=O)C2CN(C)CCC2(O)c2ccc(C)cc2)cc1 (stereo not given)
inactive

====

system: HCT-15 colon; experiment: NCI-60 one-dose screen, 48 h (100 = growth as untreated, 0 = no growth, -100 = all killed); conditions: 10 µM
This is part of a sample that, as a whole, favours compounds with a hit. Of some 83,000 tested, about 20% had one in any assay. Calls of active or inactive are those of the source. The calls were made as follows: active = growth percent below 10; inactive = the rest.
MEASUREMENT_KIND: growth

A selection of reference data follows.
O=C1NC(=O)C(=Cc2cn(Cc3ccccc3)c3ccccc23)C(=O)N1
93.8% (inactive)
CC(=O)C1C(=O)N(C)C(=O)N(C)C1=O
93.4% (inactive)
CC1([N+](=O)[O-])COP(=O)(Nc2ccc(F)cc2)OC1 (stereo not given)
104% (inactive)
CO[C@@H](c1ccccc1Cl)[C@H](C)OC(N)=O
96.9% (inactive)
O=C(O)C1[O][Sb][O]C1C(=O)O (stereo not given)
88.5% (inactive)

Now take the following compound into account.
Output growth of O=[N+]([O-])c1cccc([As]=[As]c2cccc([N+](=O)[O-])c2)c1 (stereo not given)
-83.5% (active)

====

system: HL-60(TB) leukemia; experiment: NCI-60 one-dose screen, 48 h; settings: 10 µM unless noted
Compounds without any hit were thinned out: in the full panel of roughly 83,000, 20% have a hit. Calls of active or inactive are those of the source. The calls were made as follows: active = growth percent below 10; inactive = the rest.
Choose the fitting class; nothing outside active, inactive is accepted.

NC(=O)[C@@H]1Cc2ccccc2CN1C(=O)c1ccc2c(c1)Cc1ccccc1-2
inactive
COc1cc(C(=O)/C=C/c2cc(-c3ccc4c(c3)OCO4)n[nH]2)cc(OC)c1OC
active
Cc1cc(C(C)(C)C)cc(C)c1Br
inactive
CCCn1c(=O)[nH]c(N)c([C@H]2c3ccccc3Oc3[nH]c(=O)n(CCC)c(=O)c32)c1=O
inactive
O=C1NC(=O)/C(=C/c2ccc(Cl)cc2Cl)N1
inactive

Status in this test for O=C(O)CC1CCCCC1c1ccccc1 (stereo unspecified) ?
inactive

====

system: DU-145 prostate; experiment: NCI-60 one-dose screen, 48 h (100 = growth as untreated, 0 = no growth, -100 = all killed); details: 10 µM unless noted
Compounds without any hit were thinned out: in the full panel of roughly 83,000, 20% have a hit.
MEASUREMENT_KIND: growth (%)
Number only, in %; omit the unit.

C#CC1(O)CCC2(C)C(CCC3C4CCC(=O)C4(C)CCC32)C1 (centres undefined)
109
N#CC1c2ccccc2C=CN1C(=O)c1ccc(N(CCCl)CCCl)cc1 (centres undefined)
111
COC1=CC(=O)OC(CCc2ccc3c(c2)OCO3)C1 (centres undefined)
122
CC[C@@]1(C2O[C@@H](C3O[C@@](O)(CC)[C@H](C)C[C@@H]3C)C[C@@H]2C)CC[C@H]([C@]2(C)CCC3(C[C@H](O)[C@@H](C)[C@@H]([C@H](C)[C@@H](OC)[C@H](C)C(=O)O)O3)O2)O1 (some centres undefined)
44.9

// switching to the query compound
Fill in: growth on DU-145 prostate, entry "CC1(C)N=C(N)N=C(N)N1c1ccc(OCCCCOc2ccc(S(=O)(=O)F)cc2)c(Cl)c1"
24.6

====

system: HL-60(TB) leukemia; assay: NCI-60 one-dose screen, 48 h (100 = growth as untreated, 0 = no growth, -100 = all killed); conditions: 10 µM unless noted
This is part of a sample that, as a whole, favours compounds with a hit. Of some 83,000 tested, about 20% had one in any assay. Active and inactive are the calls of the source. How the source made its calls: active means growth percent below 10; inactive means the rest.
MEASUREMENT_KIND: growth

Below, 8 molecules whose answers are already recorded.
CCCCCCCCCCCCCCCCCC(=O)OCCCCCCCCCCCCC
112% (inactive)
COCCOCCOCc1n(Cc2ccc3ccccc3n2)c2ccccc2[n+]1Cc1ccc2ccccc2c1
-68% (active)
NCCOc1ncccc1/C=C1\c2ccccc2-c2ccc(F)cc21
-38.6% (active)
COc1ccc(-c2n/c(=C\c3c(O)[nH]c4ccc(OC)cc34)cc3c2=Nc2ccccc2-3)cc1
81% (inactive)
O=[N+]([O-])c1ccc(N/N=C/C2CCCCCC2)c([N+](=O)[O-])c1
97.1% (inactive)
O=C(Nc1ccc(C(=O)Nc2ccc(C3=NCCCN3)cc2)cc1)Nc1ccc(C2=NCCCN2)cc1
44.2% (inactive)
O=[N+]([O-])c1cccc(-c2nc3sccn3c2-c2ccnc(NCCNS(=O)(=O)c3ccc(C(F)(F)F)cc3)n2)c1
16% (inactive)
CCCCOc1ccc(/C=C2/SC(N3CCCC3)=NC2=O)cc1
98% (inactive)

Check the records and state growth for "Cc1c(O)cc(-c2cnc(Nc3ccccc3)s2)c(O)c1C"
101% (inactive)

Specify measured growth for "CC/C(=C(\CC)c1ccc(OCCN(CC)CC)cc1)c1ccc(OCCN(CC)CC)cc1" .
-3.52% (active)

In one line, give reported growth of the entry "O=C(Nc1ccc(NCCN2CCOCC2)nc1)c1ccc([N+](=O)[O-])cc1" .
127% (inactive)

Complete the entry with growth for "N=C(N)c1ccc(-c2ccc(-c3cccs3)s2)nc1"
-32.1% (active)

Note growth for the molecule shown: "CC(C)(C)c1ccc(O)c(Br)c1"
156% (inactive)

// fetch growth given entry "CC(=[N-])N1CCC[C@@H](Nc2c3ccccc3nc3ccccc23)C1.[Cl][Pt].[NH-]CCC[NH-]"
17% (inactive)

Give the measured growth for "COc1ccc(/C=C2/CN(C(=O)c3ccccc3F)C/C(=C\c3ccc(OC)cc3)C2=O)cc1"
51.4% (inactive)

Read the entry "COc1cc([C@H](C)c2ccc3ccccc3c2)cc(OC)c1OC" and write its reported growth.
-5.85% (active)
